organism: Mus musculus; assay: Average lesion score in hairless mouse test against Herpes type-1 at dose of 1.5% in 1.4% aq.polyvinyl alcohol; type: functional
Assignment: determine reported Average lesion score for the given compounds.
One number for each entry.

Solved entries:
{"molecule.smiles": "C[S+](C)CCC(=O)/C=C/c1ccccc1.[I-]", "parameter": "Average lesion score", "value": 0.5}
{"molecule.smiles": "Cl.O=C(/C=C/c1ccc(Cl)c(Cl)c1)CCN1CCOCC1", "parameter": "Average lesion score", "value": 0.5}
{"molecule.smiles": "C[N+](C)(C)CCC(=O)/C=C/c1ccccc1.[I-]", "parameter": "Average lesion score", "value": 0.5}

Item: `Cl.O=C(/C=C/c1ccccc1)CCN1CCOCC1` | Average lesion score: 0.55

* * *

species on record: Mus musculus; assay: Reduction of lesion severity, in hairless mouse test against herpes type-1,at 1.5% dose in 1.4% aq.polyvinyl alcohol; type: functional
Assignment: determine reported Reduction for the given compounds.

Solved entries:
{"molecule.smiles": "C[N+](C)(C)CCC(=O)/C=C/c1ccccc1.[I-]", "Reduction": "82%"}
{"molecule.smiles": "Cl.O=C(/C=C/c1ccccc1)CCN1CCOCC1", "Reduction": "80%"}

List the reported Reduction of each compound below.
1. C[S+](C)CCC(=O)/C=C/c1ccccc1.[I-]
2. Cl.O=C(/C=C/c1ccc(Cl)c(Cl)c1)CCN1CCOCC1

1. 82%
2. 80%

* * *

Assignment: determine reported Average lesion score for the given compounds.
test system: Human alphaherpesvirus 1; assay: Average lesion score in hairless mouse model infected with HVH-1(antiherpes activity); type: functional, herpes simplex virus
One number for each entry.

{"compound": "COc1cccc(/C=C/C(=O)CC[N+](C)(C)C)c1.[I-]", "Average lesion score": 0.33}
{"compound": "C[S+]([O-])CCC(=O)/C=C/c1ccccc1 (centres undefined)", "Average lesion score": 1.3}
{"compound": "CC(C[N+](C)(C)C)C(=O)/C=C/c1ccccc1.[I-] (centres undefined)", "Average lesion score": 0.33}
{"compound": "CC(C)(C[N+](C)(C)C)C(=O)/C=C/c1ccccc1.[I-]", "Average lesion score": 2.33}
{"compound": "C[N+](C)(C)CCC(=O)/C=C/c1ccccc1.[I-]", "Average lesion score": 1}
{"compound": "CCCSCCC(=O)/C=C/c1ccccc1", "Average lesion score": 2.8}

List the reported Average lesion score of each compound below.
1. C[S+](C)CCC(=O)/C=C/c1ccccc1.[I-]
2. O=C(/C=C/c1ccccc1)CCNc1ccccc1

1. 0.5
2. 2.67

* * *

test system: Human alphaherpesvirus 1; experiment: Average lesion score in hairless mouse test against Herpes type-1 at dose of 0.75% in 1.4% aq.polyvinyl alcohol; format: functional, herpes simplex virus
parameter: Average lesion score
Answers are plain numbers.

{"molecule": "Cl.O=C(/C=C/c1ccc(Cl)c(Cl)c1)CCN1CCOCC1", "Average lesion score": 0.5}
{"molecule": "C[S+](C)CCC(=O)/C=C/c1ccccc1.[I-]", "Average lesion score": 0.67}
{"molecule": "C[N+](C)(C)CCC(=O)/C=C/c1ccccc1.[I-]", "Average lesion score": 0.67}

List the reported Average lesion score of each molecule below.
1. Cl.O=C(/C=C/c1ccccc1)CCN1CCOCC1
2. O=C(O)CP(=O)([O-])[O-].[Na+].[Na+] [DISODIUM CARBOXYMETHYLPHOSPHONATE]

[0.83, 2.5]

* * *

test system: Human alphaherpesvirus 1; assay: Reduction of lesion severity, in hairless mouse test against herpes type-1,at 3% dose in 1.4% aq.polyvinyl alcohol; type: functional, herpes simplex virus
parameter: Reduction

Solved entries:
{"compound": "C[N+](C)(C)CCC(=O)/C=C/c1ccccc1.[I-]", "value": "88%"}
{"compound": "O=C(O)CP(=O)([O-])[O-].[Na+].[Na+] [DISODIUM CARBOXYMETHYLPHOSPHONATE]", "value": "69%"}
{"compound": "Cl.O=C(/C=C/c1ccccc1)CCN1CCOCC1", "value": "87%"}
{"compound": "C[S+](C)CCC(=O)/C=C/c1ccccc1.[I-]", "value": "88%"}

Item: `Cl.O=C(/C=C/c1ccc(Cl)c(Cl)c1)CCN1CCOCC1` | Reduction: 80%

* * *

tested on: Human alphaherpesvirus 1; experiment: Average lesion score in hairless mouse model infected with HVH-1(antiherpes activity); type: functional, herpes simplex virus
Assignment: determine reported Average lesion score for the given compounds.
Give bare numbers.

Solved entries:
{"compound": "CCOP(=O)(CCC(=O)/C=C/c1ccccc1)OCC", "Average lesion score": 2.3}
{"compound": "CN(C)CCC(=O)/C=C/c1ccccc1.Cl", "Average lesion score": 1.8}

List the reported Average lesion score of each compound below.
1. O=C(O)CP(=O)([O-])[O-].[Na+].[Na+] [DISODIUM CARBOXYMETHYLPHOSPHONATE]
2. Cl.O=C(/C=C/c1ccccc1)CCN1CCOCC1

[0.33, 0.17]

List the reported Average lesion score of each compound below.
1. CCC[S+](C)CCC(=O)/C=C/c1ccccc1.[I-] (stereo unspecified)
2. O=C(/C=C/c1ccccc1)CCSc1ccccc1

1. 0.67
2. 2.5

The reported measurements were obtained from ChEMBL document CHEMBL1122349.
